assay: Toxicity liver stage against HepG2, at 10uM; type: cell-based; design: test concentration 10 uM, cell line HepG2-A16-CD81EGFP; conditions: human, HepG2-A16-CD81EGFP cells; read-out: INHIBITION
Listed here are compounds together with their documented cytotoxicity at 10 µM.
Provide only the numeric value, understood in %.

Recorded cytotoxicity at 10 µM, per entry:
[[record]]
compound = "CC(=O)Nc1nc(C(=O)N2CCCC2c2noc(C(C)C)n2)cs1 (stereo not drawn)"
display_unit = "%"
meas_value = -20.1

[[record]]
compound = "C=Cc1cccc(CN(Cc2cnn(C)c2)C2CC2)c1"
display_unit = "%"
meas_value = 3


Which cytotoxicity at 10 µM is reported for this compound? c1coc(CN2Cc3ccnn3CC(COCC3CC3)C2)c1 (stereo not drawn)
-153

====

experiment: Toxicity liver stage against HepG2, at 10uM; format: cell-based; parameters: test concentration 10 uM, cell line HepG2-A16-CD81EGFP; conditions: human, HepG2-A16-CD81EGFP cells; read-out: INHIBITION
Listed here are compounds together with their documented cytotoxicity at 10 µM.
Provide only the numeric value, understood in %.

Recorded cytotoxicity at 10 µM, per entry:
[[record]]
compound = "COc1ncccc1CN1CCn2c(Cn3cncn3)cnc2C1"
quantity_kind = "cytotoxicity at 10 µM"
display_unit = "%"
meas_value = -3.17

[[record]]
compound = "O=C(c1ccno1)N1CC[C@@H]2O[C@@H](COCCN3CCCC3)CC[C@@H]21"
quantity_kind = "cytotoxicity at 10 µM"
display_unit = "%"
meas_value = 0.925

[[record]]
compound = "CC(C)COC1CCN(C(=O)c2cc3ccccc3c(=O)[nH]2)CC1"
quantity_kind = "cytotoxicity at 10 µM"
display_unit = "%"
meas_value = 9.05

[[record]]
compound = "Cc1nc(C)n(CC2CCCCN2CCCO)n1 (stereo unspecified)"
quantity_kind = "cytotoxicity at 10 µM"
display_unit = "%"
meas_value = 4.37

[[record]]
compound = "O=C(NCC1CCS(=O)(=O)C1)N(Cc1ccncc1)C1CC1 (stereo unspecified)"
quantity_kind = "cytotoxicity at 10 µM"
display_unit = "%"
meas_value = -138


Now look at this one.
Which cytotoxicity at 10 µM is reported for this compound? CS(=O)(=O)N1CCN(C(=O)C2CSCCC(=O)N2)CC1 (stereo unspecified)
0.565

====

test: Toxicity liver stage against HepG2, at 10uM; format: cell-based; parameters: test concentration 10 uM, cell line HepG2-A16-CD81EGFP; conditions: human, HepG2-A16-CD81EGFP cells; read-out: INHIBITION
QUANTITY KIND: cytotoxicity at 10 µM (%)
Provide only the numeric value, understood in %.

[[record]]
molecule = "CC(C)(C)C(=O)N1CC[C@H]2NC(=O)N(c3ccc(F)cc3)C(=O)[C@H]21"
display_unit = "%"
meas_value = -1.72

[[record]]
molecule = "Cc1cnn(CC2CCCCN2C(=O)c2cccc(C(N)=O)c2)c1 (stereo unspecified)"
display_unit = "%"
meas_value = -0.775

[[record]]
molecule = "CS(=O)(=O)NCc1cnc2n1CCN(Cc1cccs1)CC2"
display_unit = "%"
meas_value = 3.04

[[record]]
molecule = "Cc1ccccc1OCCCC(=O)NC(C)c1nnc2n1CCC2 (stereo unspecified)"
display_unit = "%"
meas_value = -11.5

[[record]]
molecule = "CN(CCCNC(=O)Nc1ccc(C#N)cc1)CC(F)(F)F"
display_unit = "%"
meas_value = -3


Now look at this one.
Which cytotoxicity at 10 µM is reported for this molecule? O=C(Nc1ccc(OC2CCCC2)cc1)C1CCCN1c1nccs1 (stereo unspecified)
-10.2
